Organism: Mus musculus
run_description: Antinociceptive potency against phenylquinone (PBQ)-induced writhing in mice (8 mice/dose)
Type: functional
measurement_type: ED50 (mg/kg)
# number only, unit mg/kg dropped from output

compound	measurement_type	observed_result
O=c1oc2ncccc2n1CCCCCCN1CCN(c2ccc(F)cc2)CC1	ED50	7.7

Quick note, ED50 for O=c1oc2ncccc2n1CCCCN1CCN(c2ccc(F)cc2)CC1 landed at 2.9

Quick note, ED50 for CC(CN1CCN(c2ccc(F)cc2)CC1)Cn1c(=O)oc2ncccc21 (stereo not given) landed at 24.6

Quick note, ED50 for O=c1oc2ncccc2n1CCN1CCN(c2ccccc2)CC1 landed at 25

Quick note, ED50 for O=c1oc2ncccc2n1CCCCN1CCN(c2ccccc2)CC1 landed at 27

Quick note, ED50 for O=c1oc2ncccc2n1CCN1CCN(c2ccc(F)cc2)CC1 landed at 6.7

Quick note, ED50 for O=c1oc2ncccc2n1CCCCCN1CCN(c2ccc(F)cc2)CC1 landed at 11.4

Quick note, ED50 for O=c1oc2ncccc2n1CCCN1CCN(c2ccccc2)CC1 landed at 12.7

Quick note, ED50 for CC(=O)Oc1ccccc1C(=O)O landed at 63

Quick note, ED50 for O=c1oc2ncccc2n1CCCN1CCN(c2ccc(F)cc2)CC1 landed at 5.6
